- System: Pseudomonas fluorescens HPPD polypeptide (wild-type and mutants)
- METHOD NOTES: Coupled HPPD activity assay: turnover and residual turnover in crude HPPD polypeptide extracts with and without Cmpd. 1
- Type: biochemical
- REPORTED CONDITIONS: presence of 100 μM Cmpd. 1; changes in absorbance (OD) at 320 nm in the coupled assay, 30 min

MOLECULE	Residual turnover
SEQ ID NO:56 (protein, mutant HPPD polypeptide) MADLYENPMGLMGFEFIEFASPTPGTLEPIFEIMGFTKVATHRSKNVHLYRQGEINLILNNEPNSIASYFAAEHGPSVCGMAFRVKDSQKAYNRALELGAQPIHIDTGPMELNLPAIKGIGGAPLYLIDRFGEGSSIYDIDFVYLEGVERNPVGAGLKVIDHLTHNVYRGRMVYWANFYEKLFNFREARYFDIKGEYTGLTSKAMSAPDGMIRIPLNEESSKGAGQIEEFLMQFNGEGIQHVAFLTDDLVKTWDALKKIGMRFLTAPGDEYYEMLEGRLPDHGEPVDQLQARGILLDGSSVEGDKRLLLQIFSEQLMGPVFFEFIQRKGDDGFGPHSFKVLFEQMERDQVRRGVLTAD	0.253
